Recorded Plant response rating, Soybean by entry
# Test system: soybean (Glycine max)
# Method Notes: Test E greenhouse herbicide test, pre- and postemergence
# Format: in vivo
# Applied Conditions: 62 g ai/ha, Preemergence; scale 0 to 100 (0 no effect, 100 complete control)

# Mol, Plant response rating, Soybean
measured = [
    ("CC(=O)Oc1c(C)nn(C)c(=O)c1-c1c(C)sc2c(C)cc(C)cc12", 0),
    ("CCOC(=O)Oc1c(C)nn(C)c(=O)c1-c1c(CC)ccc2ccccc12", 0),
    ("Cc1ccc2sc(C)c(-c3c(O)c(C)nn(C)c3=O)c2c1", 15),
    ("COC(=O)Oc1c(C)nn(C)c(=O)c1-c1c(C)sc2c(C)cc(C)cc12", 0),
    ("CCOC(=O)Oc1c(C)nn(C)c(=O)c1-c1c(C)sc2ccc(C)cc12", 0),
]

Origin of measurements: patent US10597388B2
